Measured solubility (g/100 g solution) values are reported for all entries that follow.
- experimentNotes: xn = mol fraction of the nth substance listed, in the solute-free solvent
- conditionDetails: 293.15 K; x2 = 0.3

{"compound": "CCCCCOC(=O)Nc1nc(=O)n(C2OC(C)C(O)C2O)cc1F (stereo unspecified) + CCOC(C)=O + CCCCCCC", "measuredEndpoint": "solubility (g/100 g solution)", "dataValue": 0.0476}
{"compound": "Cc1ncc(C[n+]2csc(CCO)c2C)c(N)n1.O=[N+]([O-])[O-] + O + CC(C)=O", "measuredEndpoint": "solubility (g/100 g solution)", "dataValue": 0.0951}

[Q] State the recorded solubility (g/100 g solution) for this entry: CC(N)C(=O)O (stereo unspecified) + O + CO
[A] 0.377

[Q] State the recorded solubility (g/100 g solution) for this entry: CCCCCOC(=O)Nc1nc(=O)n(C2OC(C)C(O)C2O)cc1F (stereo unspecified) + CCOC(C)=O + CCCCCC
[A] 0.0936

[Q] State the recorded solubility (g/100 g solution) for this entry: S=c1[nH]ncs1 + CCCO + O
[A] 9.11

[Q] State the recorded solubility (g/100 g solution) for this entry: CC(N)C(=O)O (stereo unspecified) + O + CCO
[A] 0.11

[Q] State the recorded solubility (g/100 g solution) for this entry: CC(N)C(=O)O (stereo unspecified) + O + CCCO
[A] 0.0822
